# protocol: Hygroscopicity study by DVS (Dynamic Vapour Sorption)
# Assay type: physicochemical
# condition.notes: 25° C., at 95% RH
recorded.metric: humidity adsorbed (water uptake) (%)

INSERT INTO measurements (molecule, recorded_metric, measured_value) VALUES
  ('CC1=NN(c2ccc(C)c(C)c2)C(=O)/C1=N\Nc1cccc(-c2cccc(C(=O)O)c2)c1O.NCCO [Form H2]', 'humidity adsorbed (water uptake)', 0.6);
